Assay: yeast display, Sf9 membrane polyspecificity reagent, FACS + sequencing; frameworks hold sequencing errors
endpointLabel: polyreactivity (PSR sort gate)

{"columns": ["sequenceData", "valueMeasured"],
 "data": [
  ["QVQLVDTGGGLVQAGGILRIRCAASGRIFHGNSMVCYRQAPGKERELVAAITWGGTRTYYSDSVKGRFTISRDNAKNTVYLQMNSLKPEDTAVYYCATDYGYTDRVTSGFDYWGQGNQVTVSS", "low polyreactivity"],
  ["QVQLVESGGGLVQAGGSLRLSCAASGRIFDANAMGWYRQAPGKERELVAAINLSGTSTYADSVKGRFTISRDNAKNTVYLQMNSLKPEDTAVYYCNKRSPSTIRFDYWGQGTQVTVSS", "high polyreactivity"],
  ["QVQLVESGGGLVQAGGSLRLSCAASGFTFYHYAMGWYRPAPGKERELVAAITWSGGDTYYADSEKGRFTSSRDNAKNTVYLQMNSLKPEDTAVYYCNADDPPGAPYYDSFDYRGDYWGQGTQRTVSS", "low polyreactivity"],
  ["QVQLVESGGGLVQAGGSLRLSCAASGRIFLGYTMGWYIQAPGKERELVAAISYTGGSTYYADSVKGRFTISRDNAKNSVYLQMNSLKPEDTAVYYCAAGTRFSYYWGQGTQLTVSS", "high polyreactivity"],
  ["QVQLQESGGGLVQAGGSLRLSCAASGSISELRPMGWYRQAPGKERELVAGISTGGSTNYADSVKGRFTISRDNAKNTVYLQMNSLKPEDTAVYYCAAASYGEGTYDYWGQGTQVTVRS", "high polyreactivity"]
]}

I need polyreactivity (PSR sort gate) for every entry listed below, if you could help.
1. QVQLVESGGGLVQAGGSLRLSCAASGTFQSNAMGRYRPAPGKERELVAAITSGGSTNYADSVKGRFTISRDNAKNTVYLQMNSLKPEDTAVYYCAAVRRYRASRGSLYYYWGLGTQVTVSS
2. QVQLVESGGGLVQAGGSLRLSCAASGSTFESYAMGWYRQAHGKERELVASISRSGGTTFYADSVKGRFTISRDNAKNTVYLQMNSLKPEDTAVYYCAAKRRRLGGDYWGQGTQVTVSS
3. QVQLVESGGGLVQAGGSLRLSCAASGSIFASYAMGWYRQAPGKERELVAAISARGGSTYYADSVKGRFTISRDNAKNTVYLQMNSLKPEDTAVYYCAARHQQGRRISDYGYWGQGTQVTVSS

A)
1. high polyreactivity
2. high polyreactivity
3. high polyreactivity

Dear reader, for each entry below, please note its polyreactivity (PSR sort gate).
1. QVQLVESGGGLGQAGGSLRLSCAASGSTFGRYVMGWYRQAPGKERELVAAISKNSGSTYYAYSVKGRFTISRDNAKNTVYLQMNSLKPEDTAVYYCAADWRSKGYDSLGQGTQVTVSS
2. QVQLVESGGGLVQAGGSLRLSCAASGRIFDTNAMGWYRQAPGKERELVAAISSGDTTNYADSVKGRFTISRDNAKNTVYLQMNSLKPEDTAVYYCAVYAISFGWSGWTYEDSWGQGTQVTVSS
3. QVQLVESGGGLVQAGGSLRLSCAASGFNFYRYAMGWYRQAPGKERELVAVITGRGGTTYYSDSVKGRFTISRDNAKNTVYLQMNSLKTEDTAVYYCAAPQQQSWTYDGRYGYWGQGTKVTVSS

A)
high polyreactivity
low polyreactivity
high polyreactivity
